Please go through the items and note down their post-emergent herbicidal activity index.
Test system: Barnyardgrass
Assay: post-emergent herbicidal activity, greenhouse
Format: in vivo
Conditions: Table II, 4 WAT, 0.28 kg/h

Compound	post-emergent herbicidal activity index
CCOC(=O)CNCP(=O)(O)OCC(Cl)(Cl)Cl [Example 27]	3 (75-99% control)

For each listed entry, give its post-emergent herbicidal activity index.
1. CCCCCOC(=O)CNCP(=O)(O)OC(C)C#N (stereo not shown) [Example 6, hemihydrate]
2. CC(C#N)OP(=O)(O)CNCC(=O)OCc1ccccc1 (stereo not shown) [Example 10]
3. CCOC(=O)CNCP(=O)(O)OC(C)C#N (stereo not shown) [Example 5]

Result string:
1. 2 (50-74% control)
2. 2 (50-74% control)
3. 3 (75-99% control)

---

Tested on: Downy Brome
Experiment: post-emergent herbicidal activity, greenhouse
Format: in vivo
Conditions: Table I, 4 WAT, 5.6 kg/h
Measurement name: post-emergent herbicidal activity index

Compound	Target entity	Measurement name	Assay value
CCOCCOC(=O)CNCP(=O)(O)OC(C)C#N (stereo not drawn)	Downy Brome	post-emergent herbicidal activity index	2 (50-74% control)
CCOC(=O)CNCP(=O)(OCCN1CCCC1)OCCN1CCCC1	Downy Brome	post-emergent herbicidal activity index	0 (0-24% control)
CC(C#N)OP(=O)(O)CNCC(=O)OCc1ccccc1 (stereo not drawn)	Downy Brome	post-emergent herbicidal activity index	2 (50-74% control)
CC(C#N)OP(=O)(CNCC#N)OC(C)C#N (stereo not drawn)	Downy Brome	post-emergent herbicidal activity index	2 (50-74% control)
CCOC(=O)CNCP(=O)(O)OC(C#N)CC (stereo not drawn)	Downy Brome	post-emergent herbicidal activity index	3 (75-99% control)

For each listed entry, give its post-emergent herbicidal activity index.
1. CCOC(=O)CNCP(=O)(O)OCC(Cl)(Cl)Cl
2. CCCCCOC(=O)CNCP(=O)(O)OC(C)C#N (stereo not drawn) [Example 6, hemihydrate]
3. CCOC(=O)CNCP(=O)(OC(C)C(=O)OC)OC(C)C(=O)OC (stereo not drawn)
4. CCOC(=O)CNCP(=O)(OCCSC(=O)OCC)OCCSC(=O)OCC

Result string:
1: 0 (0-24% control); 2: 1 (25-49% control); 3: 0 (0-24% control); 4: 0 (0-24% control)

---

Please go through the items and note down their post-emergent herbicidal activity index.
Test system: Velvetleaf
Experiment: post-emergent herbicidal activity, greenhouse
Type: in vivo
Conditions: Table II, 4 WAT, 5.6 kg/h

Molecule	Target entity	Assay value
CC(C#N)OP(=O)(CNCC#N)OC(C)C#N (stereo not drawn)	Velvetleaf	2 (50-74% control)
CCOC(=O)CNCP(=O)(OCCN1CCCC1)OCCN1CCCC1	Velvetleaf	2 (50-74% control)

Okay, now this molecule:
Query string: Return the recorded post-emergent herbicidal activity index value; entry: CCOC(=O)CNCP(=O)(OCC1COC(C)(C)O1)OCC1COC(C)(C)O1 (stereo not drawn)
Result string: 1 (25-49% control)

---

Please go through the items and note down their pre-emergent herbicidal activity index.
Test system: Quackgrass
Assay: pre-emergent herbicidal activity, soil incorporation
Type: in vivo
Details: Table III, 2 WAT, 11.2 kg/h

Compound	pre-emergent herbicidal activity index
CCOC(=O)CNCP(=O)(O)OC(C#N)CC (stereo not drawn) [Example 8]	2 (50-74% control)
CC(C#N)OP(=O)(O)CNCC(=O)OCCCl (stereo not drawn) [Example 7]	0 (1-24% control)
CCCCCOC(=O)CNCP(=O)(O)OC(C)C#N (stereo not drawn) [Example 6, hemihydrate]	0 (1-24% control)
CCOCCOC(=O)CNCP(=O)(O)OC(C)C#N (stereo not drawn) [Example 9]	0 (1-24% control)

For each listed entry, give its pre-emergent herbicidal activity index.
1. CCOC(=O)CNCP(=O)(O)OC(C)C#N (stereo not drawn) [Example 5]
2. CC(C#N)OP(=O)(O)CNCC(=O)OCc1ccccc1 (stereo not drawn) [Example 10]

Result string:
2 (50-74% control)
0 (1-24% control)

Values were extracted from patent US4442044A.
